assay: iHOPE in vitro cytotoxicity assessment (Cell Count Reagent SF); type: cell-based, human; conditions: human; SD in parentheses, n = 3; read-out: IC50 against HL-60 RCB0041 (cytotoxicity)
pIC50: −log10 of the molar value. Numbered stars: 1 amine (or outer) side, 2 acyl side, 3 side chain; on linkers, the order of the positions; unused ones are H or OH. Bridge positions count the residues as written; N and C are the ends. Square brackets hold non-standard residues; d marks the D form. Peptide text beside a SMILES is read from it. * marks the point of attachment. hTyr(3S-OH,4S-OH,3'-OSO3H) = N[C@H](C(=O)O)[C@H](O)[C@@H](O)c1ccc(O)c(OS(=O)(=O)O)c1; Orn(4R-OH,5R-OH) = O=C([C@H](C[C@@H](O)[C@@H](O)N[*:3])N[*:1])[*:2]; Pro(3S-OH,4S-Me) = C[C@H]1CN[C@H](C(=O)O)[C@H]1O; X1 = CCCCCOc1ccc(-c2cc(-c3ccc(C(=O)*)cc3)no2)cc1; Gln(3R-OH) = NC(=O)C[C@@H](O)[C@H](N)C(=O)O; Hyp = O=C(O)[C@@H]1C[C@@H](O)CN1
Quick reference for pIC50 among some compounds
observable: pIC50

- CCCCCOc1ccc(-c2cc(-c3ccc(C(=O)N[C@H]4C[C@@H](O)[C@@H](O)NC(=O)[C@@H]5[C@@H](O)[C@@H](C)CN5C(=O)[C@H]([C@H](O)CC(N)=O)NC(=O)[C@H]([C@H](O)[C@@H](O)c5ccc(O)c(OS(=O)(=O)O)c5)NC(=O)[C@@H]5C[C@@H](O)CN5C(=O)[C@H]([C@@H](C)O)NC4=O)cc3)no2)cc1 [Micafungin, micafungin] (X1-[Orn(4R-OH,5R-OH)]T[Hyp][hTyr(3S-OH,4S-OH,3'-OSO3H)][Gln(3R-OH)][Pro(3S-OH,4S-Me)]; lactam 1-C): < 4.52
- [C-]#[N+][C@@H](C)CC(=O)N[C@H]1CC[C@@H](NC(=O)C[C@H](C)[N+]#[C-])CC1 [15b]: < 4.52
- [C-]#[N+][C@@H](C)CC(=O)N[C@H]1CC[C@H](NC(=O)C[C@H](C)[N+]#[C-])CC1 [16b]: < 4.52
- [C-]#[N+][C@H](C)CC(=O)N[C@H]1CC[C@@H](NC(=O)C[C@@H](C)[N+]#[C-])CC1 [15a]: < 4.52
- [C-]#[N+][C@H](C)CC(=O)Nc1ccc(NC(=O)C[C@@H](C)[N+]#[C-])cc1 [13a]: < 4.52

====

test system: HL-60 RCB0041; assay: iHOPE in vitro cytotoxicity assessment (Cell Count Reagent SF); format: cell-based, human
pIC50: −log10 of the molar value.
observable: pIC50

• [Cl][Cu][Cl] [Cu^2+, copper chloride (II)] = < 4.52

Hey, just so you know, these numbers are from paper PMC12057359.
